Biological target: HLA-A1 (A*0101) (human)
Test: cell competition vs YLEPAC(FI)AKY, stripped CAA B-LCL, FACS
MEASUREMENT_NAME: pIC50
In plain terms, pIC50 is the concentration in mol/L turned into minus its base-10 logarithm.

Enquiry: Could you tell me which pIC50 is on file for ITDDQLLAL (modifications not checked) [PRAME peptide …] ?
Return: 6.00
